# MEASURED ON: CDK1-NanoLuc fusion with CCNB1 in 293T or 293 cells (Homo sapiens, UniProt P06493)
# Construct: host or cells: 293T (ATCC CRL-3216) or 293 (ATCC CRL-1573)
# Sequence (P06493 whole entry, the tested form may be a part): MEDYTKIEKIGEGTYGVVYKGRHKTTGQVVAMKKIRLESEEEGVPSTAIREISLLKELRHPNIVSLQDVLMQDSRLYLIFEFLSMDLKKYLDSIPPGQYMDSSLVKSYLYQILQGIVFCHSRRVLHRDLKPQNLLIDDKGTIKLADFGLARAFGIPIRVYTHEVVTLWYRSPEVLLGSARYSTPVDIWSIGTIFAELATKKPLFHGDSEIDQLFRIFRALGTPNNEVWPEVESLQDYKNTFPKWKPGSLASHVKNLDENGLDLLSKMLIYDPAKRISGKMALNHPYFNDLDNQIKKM
# Sequence (P14635 whole entry partner, the tested form may be a part): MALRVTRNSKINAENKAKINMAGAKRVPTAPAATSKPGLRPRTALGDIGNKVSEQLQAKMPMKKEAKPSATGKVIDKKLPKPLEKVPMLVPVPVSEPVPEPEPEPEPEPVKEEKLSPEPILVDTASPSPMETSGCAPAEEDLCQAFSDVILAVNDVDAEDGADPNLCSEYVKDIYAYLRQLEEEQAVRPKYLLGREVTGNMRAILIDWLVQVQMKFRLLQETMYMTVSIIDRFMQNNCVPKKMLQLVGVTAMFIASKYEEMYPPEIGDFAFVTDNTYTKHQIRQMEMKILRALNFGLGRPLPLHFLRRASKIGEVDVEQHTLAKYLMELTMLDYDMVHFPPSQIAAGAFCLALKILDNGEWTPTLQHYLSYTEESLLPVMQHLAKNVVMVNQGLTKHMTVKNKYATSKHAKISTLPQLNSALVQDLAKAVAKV
# EXPERIMENT DESCRIPTION: NanoBRET Target Engagement (TE) Intracellular Kinase Assay, CDK1/CCNB1
# Type: cell-based
# EXPERIMENTAL CONDITIONS: NanoBRET TE intracellular kinase assay, 2-hour incubation, read-out: NanoBRET-CDK1/B1 IC50
OBSERVATION TYPE: IC50 (nM)

// solved cases for IC50 follow
# MOLECULE, OBSERVATION TYPE, TEST RESULT
rows = [
    ("COc1cc(O)c(C=O)c(OCC(=O)Nc2cc([C@H]3CC[C@@H](OC(=O)NN4CCCC4)C3)[nH]n2)c1", "IC50", 44.7),
    ("COc1cc(O)c(C=O)c(Oc2ccnc(Nc3cc([C@H]4CC[C@@H](OC(=O)NC(C)C)C4)[nH]n3)c2)c1", "IC50", 66),
]

[P] CC(C)NC(=O)O[C@@H]1CC[C@H](c2cc(NC(=O)COc3cccc(-c4nccs4)c3C=O)n[nH]2)C1
[Q] CC(C)NC(=O)O[C@@H]1CC[C@H](c2cc(NC(=O)COc3ccc(F)c(O)c3C=O)n[nH]2)C1
(Q) Among P and Q , whose measured IC50 is the smaller figure? To answer, give the label that identifies your chosen option.
(A) Q

---

# MEASURED ON: CDK2-NanoLuc fusion with CCNE1 in 293T or 293 cells (Homo sapiens)
# Construct: host or cells: 293T (ATCC CRL-3216) or 293 (ATCC CRL-1573)
# EXPERIMENT DESCRIPTION: NanoBRET Target Engagement (TE) Intracellular Kinase Assay, CDK2/CCNE1
# Type: cell-based
# EXPERIMENTAL CONDITIONS: NanoBRET TE intracellular kinase assay, 2-hour incubation, read-out: NanoBRET-CDK2/E1 IC50
pIC50: −log10 of the molar value.
OBSERVATION TYPE: pIC50

// solved cases for pIC50 follow
# COMPOUND, MEASURED ON, pIC50
measured = [
    ("COc1cc(O)c(C=O)c(OCC(=O)Nc2cc([C@H]3CC[C@@H](OC(=O)NCC4CCC4)C3)[nH]n2)c1", "CDK2-NanoLuc fusion with CCNE1 in 293T or 293 cells (Homo sapiens)", 8.68),
    ("COc1cc(O)c(C=O)c(OCC(=O)Nc2cc([C@H]3CC[C@@H](OC(=O)N4[C@H](C)C[C@@H]4C)C3)[nH]n2)c1", "CDK2-NanoLuc fusion with CCNE1 in 293T or 293 cells (Homo sapiens)", 8.58),
    ("CC(C)NC(=O)O[C@@H]1CC[C@H](c2cc(NC(=O)COc3cccc(-c4nccs4)c3C=O)n[nH]2)C1", "CDK2-NanoLuc fusion with CCNE1 in 293T or 293 cells (Homo sapiens)", 7.92),
    ("CC(C)NC(=O)O[C@@H]1CC[C@H](c2cc(NC(=O)Nc3ccc(O)c(C=O)c3)n[nH]2)C1", "CDK2-NanoLuc fusion with CCNE1 in 293T or 293 cells (Homo sapiens)", 7.95),
    ("COCc1cc(O)c(C=O)c(OCC(=O)Nc2cc([C@H]3CC[C@@H](OC(=O)NC(C)C)C3)[nH]n2)c1", "CDK2-NanoLuc fusion with CCNE1 in 293T or 293 cells (Homo sapiens)", 8.08),
    ("COc1cc(O)c(C=O)c(OCC(=O)Nc2cc([C@H]3CC[C@@H](OC(=O)N4CC5CC(C4)N5C)C3)[nH]n2)c1", "CDK2-NanoLuc fusion with CCNE1 in 293T or 293 cells (Homo sapiens)", 6.80),
    ("CC(C)NC(=O)O[C@@H]1CC[C@H](c2cc(NC(=O)C3CCN(c4cccc(O)c4C=O)C3)n[nH]2)C1 (some centres unmarked)", "CDK2-NanoLuc fusion with CCNE1 in 293T or 293 cells (Homo sapiens)", 8.07),
    ("COc1cc(OC)c2c(c1C=O)C[C@H](C(=O)Nc1cc([C@H]3C[C@@H](OC(=O)NC(C)C)C3)[nH]n1)C2", "CDK2-NanoLuc fusion with CCNE1 in 293T or 293 cells (Homo sapiens)", 7.25),
]

[1] CC(=O)Nc1cc(C(=O)Nc2cc([C@H]3CC[C@@H](OC(=O)NC(C)C)C3)[nH]n2)ccc1C=O
[2] COc1cc(O)c(C=O)c(OCC(=O)Nc2cc([C@H]3CC[C@@H](OC(=O)N4C[C@H]5CC[C@@H]4CO5)C3)[nH]n2)c1
[3] COc1cc(O)c(C=O)c(OCC(=O)Nc2cc([C@H]3CC[C@@H](OC(=O)NCCC(F)(F)F)C3)[nH]n2)c1
(Q) Order the records so the highest pIC50 appears first and the lowest last. Return the labels ranked in the requested order, please.
(A) 3, 2, 1

[a] COc1cc(O)c(C=O)c(OCC(=O)Nc2cc([C@H]3CC[C@@H](OC(=O)NC4(C)CC4(F)F)C3)[nH]n2)c1 (single isomer, unassigned) [Compound 280]
[b] COc1cc(O)c(C=O)c(OCC(=O)Nc2cc([C@H]3CC[C@@H](OC(=O)N4CCCCC4)C3)[nH]n2)c1
(Q) Between a and b , which one shows the larger pIC50 value? To answer, give the label that identifies your chosen option.
(A) b
(b: 8.93, a: 8.41)

[1] COc1ccc(-c2cc(C(=O)Nc3cc([C@H]4CC[C@@H](OC(=O)NC(C)C)C4)[nH]n3)n(C)n2)c(C=O)c1O
[2] COc1cc(O)c(C=O)c(OCc2cc(C(=O)Nc3cc([C@H]4CC[C@@H](OC(=O)NC(C)C)C4)[nH]n3)n(C)n2)c1
(Q) Among 1 and 2 , whose measured pIC50 is the smaller figure? To answer, give the label that identifies your chosen option.
(A) 1
(1: 8.15, 2: 8.52)

---

# MEASURED ON: CDK4-NanoLuc fusion with CCND1 in 293T or 293 cells (Homo sapiens, UniProt P11802)
# Construct: host or cells: 293T (ATCC CRL-3216) or 293 (ATCC CRL-1573)
# Sequence (P11802 whole entry, the tested form may be a part): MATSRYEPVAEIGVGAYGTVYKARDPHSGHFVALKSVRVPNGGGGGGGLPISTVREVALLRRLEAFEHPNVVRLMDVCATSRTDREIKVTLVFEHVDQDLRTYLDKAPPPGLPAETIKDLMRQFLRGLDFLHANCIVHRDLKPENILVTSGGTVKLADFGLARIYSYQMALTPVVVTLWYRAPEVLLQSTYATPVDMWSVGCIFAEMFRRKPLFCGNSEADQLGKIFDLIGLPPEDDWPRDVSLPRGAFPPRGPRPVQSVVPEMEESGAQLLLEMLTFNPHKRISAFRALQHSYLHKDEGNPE
# Sequence (P24385 whole entry partner, the tested form may be a part): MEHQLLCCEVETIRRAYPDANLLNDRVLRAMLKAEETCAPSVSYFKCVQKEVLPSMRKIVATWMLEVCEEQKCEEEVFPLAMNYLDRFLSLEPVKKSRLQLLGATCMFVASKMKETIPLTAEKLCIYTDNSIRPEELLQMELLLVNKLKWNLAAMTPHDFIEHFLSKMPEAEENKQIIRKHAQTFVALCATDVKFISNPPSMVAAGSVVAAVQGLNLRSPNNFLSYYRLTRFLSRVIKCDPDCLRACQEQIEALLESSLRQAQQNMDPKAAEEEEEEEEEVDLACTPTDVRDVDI
# EXPERIMENT DESCRIPTION: NanoBRET Target Engagement (TE) Intracellular Kinase Assay, CDK4/CCND1
# Format: cell-based
# EXPERIMENTAL CONDITIONS: NanoBRET TE intracellular kinase assay, 2-hour incubation, read-out: NanoBRET-CDK4/D1 IC50
pIC50: −log10 of the molar value.
OBSERVATION TYPE: pIC50

[P] COc1cc(O)c(C=O)c(OCC(=O)Nc2cc([C@H]3CC[C@@H](OC(=O)N4NC5CCC4C5)C3)[nH]n2)c1 (stereo partly shown) [Compound 273]
[Q] COc1cc(O)c(C=O)c2c1CC(C(=O)Nc1cc([C@H]3CC[C@@H](OC(=O)N(C)N(C)C)C3)n[nH]1)C2 (single isomer, unassigned) [Compound 284]
[R] COc1cc(O)c(C=O)c([C@@H]2C[C@H]2C(=O)Nc2cc([C@H]3CC[C@@H](OC(=O)NC(C)C)C3)[nH]n2)c1 (mixture of isomers) [Compound 89]
[S] CC(=O)Nc1ccc(C(=O)Nc2cc([C@H]3CC[C@@H](OC(=O)NC(C)C)C3)[nH]n2)cc1C=O [Compound 38]
[T] CC(C)NC(=O)O[C@@H]1CC[C@H](c2cc(NC(=O)Nc3ccc(O)c(C=O)c3)n[nH]2)C1 [Compound 33]
(Q) Order required: smallest reported pIC50 first, largest last, for all molecules above. Return the labels ranked in the requested order, please.
(A) P, Q, R, S, T

[P] CC(C)NC(=O)O[C@@H]1CC[C@H](c2cc(NC(=O)c3cc(OCc4cccc(O)c4C=O)nn3C)n[nH]2)C1 [Compound 28]
[Q] COc1cc(O)c(C=O)c(OCC(=O)Nc2cc([C@H]3CC[C@@H](OC(=O)N[C@@H](C)CF)C3)[nH]n2)c1 [Compound 120]
[R] C#Cc1cccc(-c2cc(C(=O)Nc3cc([C@H]4CC[C@@H](OC(=O)NC(C)C)C4)[nH]n3)n(C)n2)c1C=O [Compound 52]
[S] CC(C)NC(=O)O[C@@H]1CC[C@H](c2cc(NC(=O)OCc3cccc(O)c3C=O)n[nH]2)C1 [Compound 63]
(Q) Order the records so the highest pIC50 appears first and the lowest last. Return the labels ranked in the requested order, please.
(A) R, P, Q, S

[A] COc1cc(O)c(C=O)c(OCC(=O)Nc2cc([C@H]3CC[C@@H](OC(=O)N(C)C(C)C)C3)[nH]n2)c1 [Compound 244]
[B] CCN(CC#N)C(=O)O[C@@H]1CC[C@H](c2cc(NC(=O)COc3cc(OC)cc(O)c3C=O)n[nH]2)C1 [Compound 147]
(Q) Between A and B , which one shows the larger pIC50 value? To answer, give the label that identifies your chosen option.
(A) A
(A: 5.88, B: 5.65)
